The entries below come with measured melting point values attached.
MEASURED PARAMETER: melting point

STRUCTURE SMILES STRING | OBSERVED RESULT
COC(=O)NC[C@H]1CN(c2ccc(-c3nc(Cn4cncn4)cs3)c(F)c2)C(=O)O1 | 199 to 201 °C
COC(=O)NC[C@H]1CN(c2ccc(-c3nc(Cn4ccnc4)cs3)c(F)c2)C(=O)O1 | 165 to 167 °C
CC(=S)NC[C@H]1CN(c2ccc(-c3nc(Cn4cccn4)cs3)c(F)c2)C(=O)O1 | 166 to 168 °C
COC(=S)NC[C@H]1CN(c2ccc(-c3nc(Cn4cccn4)co3)c(F)c2)C(=O)O1 | 145 to 147 °C
